Listed below: koff values for each entry.
# SUBJECT_OF_TEST: T1, Cynomolgus monkey CD98 ECD with C-terminal His-tag (cynomolgus monkey, UniProt P08195 105-529 (human entry))
# T1 construct: also called cyCD98 ECD; recombinant cynomolgus monkey CD98 extracellular domain
# T1 chain: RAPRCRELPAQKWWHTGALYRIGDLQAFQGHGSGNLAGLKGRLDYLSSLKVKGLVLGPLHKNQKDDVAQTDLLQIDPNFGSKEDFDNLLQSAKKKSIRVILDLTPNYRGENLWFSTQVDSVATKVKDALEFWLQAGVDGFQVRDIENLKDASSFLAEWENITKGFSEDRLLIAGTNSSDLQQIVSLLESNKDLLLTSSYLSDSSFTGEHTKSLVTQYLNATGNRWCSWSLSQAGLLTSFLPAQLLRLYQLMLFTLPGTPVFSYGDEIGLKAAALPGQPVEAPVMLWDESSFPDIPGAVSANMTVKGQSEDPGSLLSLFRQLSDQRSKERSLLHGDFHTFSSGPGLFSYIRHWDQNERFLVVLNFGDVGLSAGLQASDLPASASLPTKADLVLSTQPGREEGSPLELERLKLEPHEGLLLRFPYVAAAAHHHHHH
# MEASUREMENT_PROTOCOL: SPR Biacore, anti-Fc capture of mAb, CD98 ECD analyte
// note: answer is a bare numeric in s⁻¹

The following binders have reported results that may help.
Anti-CD98 rat hybridoma antibody Ab11 (antibody, V domains shown) VH: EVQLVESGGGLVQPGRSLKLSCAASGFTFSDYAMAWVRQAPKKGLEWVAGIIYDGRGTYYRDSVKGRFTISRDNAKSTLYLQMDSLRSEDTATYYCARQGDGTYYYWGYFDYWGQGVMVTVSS VL: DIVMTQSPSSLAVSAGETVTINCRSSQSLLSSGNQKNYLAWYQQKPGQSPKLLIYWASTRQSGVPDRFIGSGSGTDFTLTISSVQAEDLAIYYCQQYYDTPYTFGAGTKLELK: 0.0017
Anti-CD98 rat hybridoma antibody Ab10 (antibody, V domains shown) VH: EVQLVESGGGLVQPGRSLKLSCAASGFTFSDYAMAWVRQAPKKSLEWVATIIYDGRGTYCRDSVKGRFTISRDNAKSTLYLQMDSLRSEDTATYYCARQGDGTYHYWGYFDYWGQGVMVTVSS VL: DIVMTQSPSSLAVSAGETVTINCKSSQSLLSSGNQKNYLAWYQQKPGQSPKLLIYWASTRQSGVPDRFIGSGSGTDFTLTISSVQAEDLAIYYCQQYYDTPYTFGAGTKVDLK: 0.00049

Please look up its koff: Anti-CD98 rat hybridoma antibody Ab7 (antibody, V domains shown) VH: QVQLKESGPGLVQPSQTLSLTCTVSGFSLSTYGVIWVRQPPGKGLEWMGVIWANGNTNYNSTLKSRLSISRDTSKSQVYLKMNSLQTEDTATYYCARHYYDGTYYYGYFDYWGQGVMVTVSS VL: DIVMTQTPSSQAVSAGEKVTMNCKSSQSLLYSENKKNYLAWYQQKPGQSPKLLIYWASTRESGVPDRFIGSGSGTDFTLTISSVQAEDLAVYYCQQYYYFPYTFGPGTKLELK
0.00027
